Reference source: ChEMBL document CHEMBL3603790

# assay: Cytotoxicity against African green monkey Vero 76 cells
# Type: cell-based
# protocol_conditions: chlorocebus sabaeus, Vero 76 cells
recorded_metric: CC50 (µM)
Give the value in µM but do not write µM after it.

Some molecules with known CC50 results, for comparison:
compound_string	CC50 / µM
Nc1ncc(F)c2c1ncn2[C@@H]1C=C(CO)[C@@H](O)[C@H]1O	36
Cc1cnc(N)c2ncn([C@@H]3C=C(CO)[C@@H](O)[C@H]3O)c12	36

Lookup: Find the recorded CC50 belonging to Nc1ncc(F)c2c1ncn2[C@@H]1C=C(CCO)[C@@H](O)[C@H]1O and report it.
Found: 3.4

---

# assay: Cytotoxicity against MDCK cells relative to control
# Format: cell-based, Canis lupus familiaris
# protocol_conditions: dog
CC50 listing for selected compounds.

The following compounds have reported results that may help.
compound_string	CC50
NC(=O)c1ncn([C@@H]2O[C@H](CO)[C@@H](O)[C@H]2O)n1	> 100 µM
Nc1ncc(F)c2c1ncn2[C@@H]1C=C(CO)[C@@H](O)[C@H]1O	> 357 µM
Cc1cnc(N)c2ncn([C@@H]3C=C(CO)[C@@H](O)[C@H]3O)c12	> 362 µM

Lookup: Which CC50 is reported for this compound? Nc1ncc(F)c2c1ncn2[C@@H]1C=C(CCO)[C@@H](O)[C@H]1O
Found: > 340 µM

---

Parameter CC50: see the listing below.
# assay: Cytotoxicity against African green monkey CV1 cells
# Assay type: cell-based, CV-1
# protocol_conditions: chlorocebus aethiops

Worked cases, CC50 given:
molecule	recorded_metric	reported_value
Nc1nc(F)cc2c1ncn2[C@@H]1C[C@H](CO)[C@@H](O)[C@H]1O	CC50	> 355 µM
Nc1nc(F)cc2c1ncn2[C@@H]1C[C@H](CCO)[C@@H](O)[C@H]1O	CC50	> 338 µM
Nc1nc(F)cc2c1ncn2[C@@H]1C=C(CO)[C@@H](O)[C@H]1O	CC50	> 100 µM

Lookup: Given the molecule Nc1nc(F)cc2c1ncn2[C@@H]1C=C(CCO)[C@@H](O)[C@H]1O , what is its reported CC50?
Found: > 100 µM

Lookup: Entry Nc1cc2nc[nH]c2c(=O)[nH]1 [DEZAGUANINE] : reported CC50 = ?
Found: 250 µM

Lookup: Quick one: CC50 for Nc1nc(F)cc2c1ncn2[C@@H]1C[C@H](O)[C@@H](O)[C@H]1O ?
Found: > 100 µM

---

# assay: Selectivity index, ratio of CC50 for HFF to IC50 for HCMV
# Format: functional
Reported Ratio CC50/IC50 values are given for each entry in this list.
Kindly provide the number alone.

Worked cases, Ratio CC50/IC50 given:
compound_string	recorded_metric	reported_value
Nc1nc(F)cc2c1ncn2[C@@H]1C=C(CO)[C@@H](O)[C@H]1O	Ratio CC50/IC50	25
Cc1cnc(N)c2ncn([C@@H]3C=C(CO)[C@@H](O)[C@H]3O)c12	Ratio CC50/IC50	38.6

Next:
Lookup: Would you mind telling me what Ratio CC50/IC50 value was observed for Nc1ncc(F)c2c1ncn2[C@@H]1C=C(CCO)[C@@H](O)[C@H]1O ?
Found: 759

---

# Tested on: Influenza B virus
# assay: Antiviral activity against Influenza B virus infected in MDCK cells after 3 days by neutral red dye-based plaque reduction assay
# Type: functional, organism-based
# protocol_conditions: 72 h
recorded_metric: pIC50
In simple prose, pIC50 is minus the logarithm base ten of a concentration in moles per litre.

# annotated cases, reported pIC50 shown
molecule	pIC50
NC(=O)c1ncn([C@@H]2O[C@H](CO)[C@@H](O)[C@H]2O)n1 [RIBAVIRIN]	5.05
Cc1cnc(N)c2ncn([C@@H]3C=C(CO)[C@@H](O)[C@H]3O)c12	5.96

Lookup: Give pIC50 (Influenza B virus) of the following molecule: Nc1ncc(F)c2c1ncn2[C@@H]1C=C(CCO)[C@@H](O)[C@H]1O
Found: 6.00

---

# Test system: Human betaherpesvirus 5
# assay: Antiviral activity against HCMV infected in HFF after 3 days by neutral red dye-based plaque reduction assay
# Type: functional, organism-based
# protocol_conditions: Human betaherpesvirus 5, 72 h
Recorded pIC50 values for a group of compounds are listed next.
pIC50 (log units): -log10 of the concentration in mol/L.

Example entries begin here.
compound	reported_value
Nc1ncc(F)c2c1ncn2[C@@H]1C=C(CCO)[C@@H](O)[C@H]1O	5.29
Nc1ncc(F)c2c1ncn2[C@@H]1C=C(CO)[C@@H](O)[C@H]1O	6.52
Cc1cnc(N)c2ncn([C@@H]3C=C(CO)[C@@H](O)[C@H]3O)c12	5.19
Nc1nc2c(ncn2COC(CO)CO)c(=O)[nH]1 [GANCICLOVIR]	5.44

Now let's try a different one.
Lookup: Any idea what its pIC50 is? The compound is Nc1nc(F)cc2c1ncn2[C@@H]1C=C(CO)[C@@H](O)[C@H]1O
Found: 5.06

---

# assay: Cytotoxicity against African green monkey Vero 76 cells relative to control
# Assay type: cell-based
# protocol_conditions: chlorocebus sabaeus
recorded_metric: CC50 (µM)
State the answer as a number, implicitly in µM.

Completed entries (count: 2):
compound_string	recorded_metric	reported_value
Cc1cnc(N)c2ncn([C@@H]3C=C(CO)[C@@H](O)[C@H]3O)c12	CC50	83.3
Nc1ncc(F)c2c1ncn2[C@@H]1C=C(CCO)[C@@H](O)[C@H]1O	CC50	190

Lookup: Fill blank: measured CC50 of the compound Nc1ncc(F)c2c1ncn2[C@@H]1C=C(CO)[C@@H](O)[C@H]1O is ____.
Found: 114

---

# System: West Nile virus
# assay: Antiviral activity against WNV infected in African green monkey Vero 76 cells after 3 days by neutral red dye-based plaque reduction assay
# Assay type: functional, organism-based
Active and inactive are the calls of the source. The calls are words filed in the database; no cut-off is given here.

compound_string	measured_target	Activity
Nc1ncc(F)c2c1ncn2[C@@H]1C=C(CO)[C@@H](O)[C@H]1O	West Nile virus	inactive
Nc1nc(F)cc2c1ncn2[C@@H]1C=C(CCO)[C@@H](O)[C@H]1O	West Nile virus	inactive
Nc1nc(F)cc2c1ncn2[C@@H]1C[C@H](CO)[C@@H](O)[C@H]1O	West Nile virus	inactive

---

# assay: Cytotoxicity against African green monkey Vero cells
# Assay type: cell-based
# protocol_conditions: chlorocebus sabaeus, Vero cells
List of CC50 values.

compound_string	CC50
Nc1ncc(F)c2c1ncn2[C@@H]1C=C(CCO)[C@@H](O)[C@H]1O	> 340 µM
Nc1nc(F)cc2c1ncn2[C@@H]1C[C@H](O)[C@@H](O)[C@H]1O	> 100 µM
Nc1nc(F)cc2c1ncn2[C@@H]1C=C(CO)[C@@H](O)[C@H]1O	> 100 µM

Lookup: Quick check: CC50 of Nc1ncc(F)c2c1ncn2[C@@H]1C=C(CO)[C@@H](O)[C@H]1O ?
Found: 224 µM

---

# assay: Cytotoxicity against HFF
# Assay type: cell-based
# protocol_conditions: human, HFF cells
recorded_metric: CC50

Worked cases, answers included:
compound_string	CC50
Nc1ncc(F)c2c1ncn2[C@@H]1C=C(CCO)[C@@H](O)[C@H]1O	> 300 µM
Nc1ncc(F)c2c1ncn2[C@@H]1C=C(CO)[C@@H](O)[C@H]1O	> 300 µM
Nc1nc(F)cc2c1ncn2[C@@H]1C=C(CO)[C@@H](O)[C@H]1O	218 µM

Lookup: Query (compound): Nc1nc(F)cc2c1ncn2[C@@H]1C=C(CCO)[C@@H](O)[C@H]1O ; field requested: CC50
Found: > 300 µM

Lookup: Name the reported CC50 value associated with the compound Nc1nc2c(ncn2COC(CO)CO)c(=O)[nH]1
Found: > 100 µM

Lookup: Please report the recorded CC50 for Cc1cnc(N)c2ncn([C@@H]3C=C(CO)[C@@H](O)[C@H]3O)c12 .
Found: 247 µM

---

# assay: Inhibition of rabbit erythrocytic AdoHcy hydrolase using AdoHcy as substrate assessed as formation of L-homocysteine preincubated for 5 mins followed by substrate addition measured after 1 hr by thiol quantitation reagent-based assay
# Design: species or system Oryctolagus cuniculus
Rule for this label: fulfilled means IC50 is less than 1000 nM; not fulfilled means IC50 is at least 1000 nM.

Example entries and their recorded answers appear below.
compound_string	category
Nc1nc(F)cc2c1ncn2[C@@H]1C=C(CO)[C@@H](O)[C@H]1O	not fulfilled
Nc1ncc(F)c2c1ncn2[C@@H]1C=C(CCO)[C@@H](O)[C@H]1O	fulfilled
Nc1nc(F)cc2c1ncn2[C@@H]1C[C@H](CCO)[C@@H](O)[C@H]1O	not fulfilled
Nc1nc(F)cc2c1ncn2[C@@H]1C=C(CCO)[C@@H](O)[C@H]1O	not fulfilled
Cc1cnc(N)c2ncn([C@@H]3C=C(CO)[C@@H](O)[C@H]3O)c12	fulfilled
Nc1ncc(F)c2c1ncn2[C@@H]1C=C(CO)[C@@H](O)[C@H]1O	fulfilled

Continue with the next compound.
Lookup: Criterion: IC50 strictly below 1000 nM. Is it met by Nc1nc(F)cc2c1ncn2[C@@H]1C[C@H](CO)[C@@H](O)[C@H]1O ?
Found: not fulfilled
